# Protocol summary: S. cerevisiae RM11-1a growth modifiers, primary screen, strain RM11-1a, OD600, basal, 24 h (AID 1177);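 note: cultures grown under basal conditions with no added stressor; test concentration not given here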
# Test settings: OD600, 24 h, higher = more signal, called active from +8 up or from −8 down
Quantity kind: z-score
Answer with the value's number alone.

Look over these answered cases.
1) CC(=O)NCCCC[C@@H]1NC(=O)[C@@H]2C[C@H](C(=O)NCCCCCCNC(=O)CS)[C@H](c3ccc(O)cc3)N2C1=O = 0.208
2) COCCOC(=O)N1C(=O)[C@@]2(c3cc(C#CCNC(N)=O)ccc31)[C@H](C(=O)N1CCc3cc(OC)c(OC)cc3C1)[C@H]1C(=O)O[C@H](c3ccccc3)[C@H](c3ccccc3)N1[C@@H]2c1ccc(OCCO)cc1 = 2.97
3) COCCOC(=O)N1C(=O)[C@@]2(c3cc(C#CC4(O)CCCCCC4)ccc31)[C@H](C(=O)N1CCCCCCC1)[C@H]1C(=O)O[C@H](c3ccccc3)[C@H](c3ccccc3)N1[C@@H]2c1ccccc1OCCO = 2.36
4) [N-]=[N+]=NCc1ccccc1[C@@H]1OC(c2ccc(OCCCO)cc2)=N[C@]1(Cc1ccccc1)C(=O)N1CCCCC1 = 1.48

Using the record for `Cc1ccc(S[C@]2(C(=O)NC3CC3)CC(=O)N(C3CCCCC3)[C@@H]2c2ccc(CO)cc2I)cc1` , report its z-score.
0.537

Field entry: `CN(C)CCCCCCNC(=O)[C@H]1C[C@H]2C(=O)N[C@@H](CCCCN)C(=O)N2[C@H]1c1ccc(O)cc1`
0.0384

====

The entries below are paired with their reported composite z-score.
# Target of assay: Concanavalin-A (Canavalia ensiformis) (UniProt P02866)
# Sequence (P02866 whole entry, looked up): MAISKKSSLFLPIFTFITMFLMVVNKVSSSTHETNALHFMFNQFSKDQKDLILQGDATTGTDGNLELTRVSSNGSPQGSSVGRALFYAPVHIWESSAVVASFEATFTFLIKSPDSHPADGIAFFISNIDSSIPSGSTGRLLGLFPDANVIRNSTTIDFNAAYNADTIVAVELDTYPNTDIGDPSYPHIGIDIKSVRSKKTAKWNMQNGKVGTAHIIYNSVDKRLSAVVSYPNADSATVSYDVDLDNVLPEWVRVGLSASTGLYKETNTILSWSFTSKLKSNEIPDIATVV
# Protocol summary: ConA small-molecule binders, primary screen, artefact control for SMM control protein annotation, biochemical, small-molecule microarray, Alexa647 label, 635 nm (AID 1127);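 note: z combines 667 nm emission intensity with signal-to-noise across three replicate slides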
# Test settings: ConA-A647 binding fluorescence, higher = more signal
Lab note: jot the number down without any unit.

1. COCCOC(=O)N1C(=O)[C@@]2(c3cc(C#CCC(C(=O)OC)C(=O)OC)ccc31)[C@H](C(=O)N1CCCCCCC1)[C@H]1C(=O)O[C@H](c3ccccc3)[C@H](c3ccccc3)N1[C@@H]2c1ccc(OCCO)cc1 = 1.15

GET /values?readout=composite z-score&system=Concanavalin-A (Canavalia ensiformis) (UniProt P02866)&item= [N-]=[N+]=NCc1ccccc1C[C@@]1(C(=O)NCC(O)CO)N=C(c2ccc(OCCCO)cc2)O[C@@H]1c1ccccc1CN=[N+]=[N-] (some centres not stated)
1.1

What would you report for `Cc1ccc(S[C@]2(C(=O)NC3CC3)CC(=O)N(C3CCCCC3)[C@@H]2c2ccc(CO)cc2I)cc1` ?
0.896

Param item: `CC(C)N1C(=O)C[C@@](C(=O)NCc2ccccc2)(c2ccc([N+](=O)[O-])cc2)[C@H]1c1ccc(CO)cc1`
-0.0974

What would you report for `C=CCOC(=O)[C@H]1[C@@H]2C(=O)O[C@@H](c3ccccc3)[C@@H](c3ccccc3)N2[C@@H](c2ccc(OCCOC(=O)[C@@H]3C[C@@H]4C(=O)NCC(=O)N4[C@@H]3c3ccc(O)cc3)cc2)[C@]12C(=O)Nc1ccccc12` ?
1.11

Moving on to O=C1OCCC=C[C@H]2OC34C=CCN(Cc5ccccc5)C(=O)[C@H]3N(CCCO)C(=O)[C@@H]4C12 (some centres not stated)
-0.731

What do you have for `COC(=O)[C@@]1(Cc2ccc(OC)cc2)[C@H]2c3cc(C(=O)N4CCCC4)n(CCc4c[nH]c5cc(F)ccc45)c3C[C@H]2CN1C(=O)c1ccccc1` ?
0.871
